target: ALK tyrosine kinase receptor (Homo sapiens); assay: Inhibition of ALK (unknown origin) at 10 uM after 30 mins by fluorescence assay
Activity calls are given as the source filed them. The rule behind the calls is not given here.
REPORTED_ENDPOINT: inhibition

# SMILES, SYSTEM_TESTED, EXPERIMENTAL_RESULT
data = [
    ("Cn1nnnc1Sc1cc(NC(=O)c2ccc(Cl)cc2)c2ccccc2c1O", "ALK tyrosine kinase receptor (Homo sapiens)", "inactive"),
    ("O=C(/C=C/c1ccccc1)Nc1cc(Sc2ncn[nH]2)c(O)c2ccccc12", "ALK tyrosine kinase receptor (Homo sapiens)", "inactive"),
    ("O=C(Nc1cc(Sc2ncn[nH]2)c(O)c2ccccc12)c1ccccc1[N+](=O)[O-]", "ALK tyrosine kinase receptor (Homo sapiens)", "56.8%"),
    ("Cc1nnc(Sc2cc(NC(=O)c3ccc(Cl)cc3)c3ccccc3c2O)s1", "ALK tyrosine kinase receptor (Homo sapiens)", "9.25%"),
    ("COc1ccc(C(=O)Nc2cc(Sc3ncn[nH]3)c(O)c3ccccc23)cc1", "ALK tyrosine kinase receptor (Homo sapiens)", "inactive"),
    ("Cc1cccc(C(=O)Nc2cc(Sc3ncn[nH]3)c(O)c3ccccc23)c1", "ALK tyrosine kinase receptor (Homo sapiens)", "inactive"),
    ("O=C(Nc1cc(Sc2nncs2)c(O)c2ccccc12)c1ccc(Cl)cc1", "ALK tyrosine kinase receptor (Homo sapiens)", "4.2%"),
    ("O=C(Nc1cc(Sc2ncn[nH]2)c(O)c2ccccc12)c1ccc(Cl)cc1", "ALK tyrosine kinase receptor (Homo sapiens)", "inactive"),
    ("O=C(Nc1cc(Sc2ncnc3nc[nH]c23)c(O)c2ccccc12)c1ccccc1[N+](=O)[O-]", "ALK tyrosine kinase receptor (Homo sapiens)", "inactive"),
    ("O=C(Nc1cc(Sc2ncn[nH]2)c(O)c2ccccc12)c1cccc(Cl)c1", "ALK tyrosine kinase receptor (Homo sapiens)", "inactive"),
    ("O=C(/C=C/c1ccc([N+](=O)[O-])cc1)Nc1cc(Sc2ncn[nH]2)c(O)c2ccccc12", "ALK tyrosine kinase receptor (Homo sapiens)", "inactive"),
    ("O=C(Nc1cc(Sc2ncn[nH]2)c(O)c2ccccc12)c1cccc([N+](=O)[O-])c1", "ALK tyrosine kinase receptor (Homo sapiens)", "inactive"),
    ("COc1ccc(/C=C/C(=O)Nc2cc(Sc3ncn[nH]3)c(O)c3ccccc23)cc1OC", "ALK tyrosine kinase receptor (Homo sapiens)", "14.9%"),
    ("COc1cccc(C(=O)Nc2cc(Sc3ncn[nH]3)c(O)c3ccccc23)c1", "ALK tyrosine kinase receptor (Homo sapiens)", "inactive"),
    ("O=C(/C=C/c1ccc(Cl)cc1)Nc1cc(Sc2ncn[nH]2)c(O)c2ccccc12", "ALK tyrosine kinase receptor (Homo sapiens)", "0.7%"),
    ("CN[C@@H]1C[C@H]2O[C@@](C)([C@@H]1OC)n1c3ccccc3c3c4c(c5c6ccccc6n2c5c31)C(=O)NC4", "ALK tyrosine kinase receptor (Homo sapiens)", "97.9%"),
    ("O=C(Nc1cc(Sc2ncn[nH]2)c(O)c2ccccc12)c1ccc2ccccc2c1", "ALK tyrosine kinase receptor (Homo sapiens)", "inactive"),
    ("O=C(Nc1cc(Sc2ncn[nH]2)c(O)c2ccccc12)c1ccc([N+](=O)[O-])cc1", "ALK tyrosine kinase receptor (Homo sapiens)", "3.37%"),
    ("O=C(Nc1cc(Sc2ncnc3nc[nH]c23)c(O)c2ccccc12)c1ccc(Cl)cc1", "ALK tyrosine kinase receptor (Homo sapiens)", "inactive"),
]

Each recorded value in this set is attributed to ChEMBL document CHEMBL2390901.
